EXPERIMENTAL SYSTEM: Vasopressin V1a receptor (Homo sapiens, UniProt P37288)
Sequence (P37288 whole entry): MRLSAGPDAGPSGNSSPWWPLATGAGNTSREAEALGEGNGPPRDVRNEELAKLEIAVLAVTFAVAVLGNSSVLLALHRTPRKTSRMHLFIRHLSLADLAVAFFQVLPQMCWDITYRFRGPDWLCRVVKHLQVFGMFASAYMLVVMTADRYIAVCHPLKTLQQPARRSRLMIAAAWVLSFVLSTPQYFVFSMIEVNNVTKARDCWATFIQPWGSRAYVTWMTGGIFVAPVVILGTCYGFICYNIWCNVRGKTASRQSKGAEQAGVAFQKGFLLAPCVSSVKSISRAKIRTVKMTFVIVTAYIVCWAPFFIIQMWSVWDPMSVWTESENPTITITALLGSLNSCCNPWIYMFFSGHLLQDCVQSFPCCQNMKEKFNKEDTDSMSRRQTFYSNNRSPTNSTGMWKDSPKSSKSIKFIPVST
TEST: In vitro binding affinity to human V1a receptor
READOUT KIND: IC50 (µM)
Write the number in µM without appending the unit.

// IC50 value for `Cc1ccccc1C(=O)Nc1ccc(C(=O)N2CCc3c[nH]nc3-c3sccc32)cc1` : 0.24

// IC50 value for `O=C(Nc1ccc(C(=O)N2CCCCc3sccc32)c(Cl)c1)c1ccccc1-c1ccccc1` : 0.086

// IC50 value for `Cn1cc2c(n1)-c1sccc1N(C(=O)c1ccc(NC(=O)c3ccc(Cl)cc3Cl)cc1)CC2` : 4.1

###

EXPERIMENTAL SYSTEM: Vasopressin V2 receptor (Homo sapiens, UniProt P30518)
Sequence (P30518 whole entry): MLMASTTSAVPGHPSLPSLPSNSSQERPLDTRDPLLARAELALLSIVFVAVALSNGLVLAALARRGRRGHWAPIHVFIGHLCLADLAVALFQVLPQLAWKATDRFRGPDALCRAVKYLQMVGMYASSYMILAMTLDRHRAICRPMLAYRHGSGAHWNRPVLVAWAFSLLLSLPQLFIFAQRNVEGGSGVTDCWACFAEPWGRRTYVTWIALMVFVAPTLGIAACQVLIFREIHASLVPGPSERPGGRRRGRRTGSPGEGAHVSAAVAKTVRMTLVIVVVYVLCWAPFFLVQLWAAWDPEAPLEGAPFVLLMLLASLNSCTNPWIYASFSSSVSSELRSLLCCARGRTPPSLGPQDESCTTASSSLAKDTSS
READOUT KIND: IC50 (nM)
Write the number in nM without appending the unit.

// IC50 value for `Cn1cc2c(n1)-c1sccc1N(C(=O)c1ccc(NC(=O)c3ccc(Cl)cc3Cl)cc1)CC2` : 150
